substrate: CCCCCCCC(=O)Oc1ccc([N+](=O)[O-])cc1; experiment: purified protein; format: biochemical, Dorea formicigenerans; settings: 10 mM Tris-HCl pH 8.4, 2.5% Triton X-100, 40 °C
Each record here notes measured kcat.
Provide only the numeric value, understood in s⁻¹.

Reported kcat, protein DfFAE (Dorea formicigenerans; P149A) (protein, E. coli T7; trimeric by SEC (117 kDa)) MNQKKECMDVHVNGLKFHVQTFGSGVPIIMIMGLGAPGDKWKHNYELLSKWFWCIVPDNRGAGLSDKPEAESYTTEQMADDIIGIMDALDIKKAHVMGVSMGGAIAQQVALKVPDRVLSLILTSTFASVSPAFKKALNLICELKEDTDAAVLKQLNLWMTYGQYTQIHHPEKIEKSIEEDAAYPYPMPVYAYKAQCGACLSHNTAGRLHELKMPVLIAAGAKDLFMNIEKTMELVHGIPQAEFYLAPEGGHVHQWEYPEPYDSVVVGFLMKHTN : ____
1.08

Look up kcat for this protein: DfFAE (Dorea formicigenerans; V252A) (protein, E. coli T7; trimeric by SEC (117 kDa)) MNQKKECMDVHVNGLKFHVQTFGSGVPIIMIMGLGAPGDKWKHNYELLSKWFWCIVPDNRGAGLSDKPEAESYTTEQMADDIIGIMDALDIKKAHVMGVSMGGAIAQQVALKVPDRVLSLILTSTFASVSPAFKKALNLICELKEDTDPAVLKQLNLWMTYGQYTQIHHPEKIEKSIEEDAAYPYPMPVYAYKAQCGACLSHNTAGRLHELKMPVLIAAGAKDLFMNIEKTMELVHGIPQAEFYLAPEGGHAHQWEYPEPYDSVVVGFLMKHTN
0.52

Can you share its kcat? I mean this protein: DfFAE (Dorea formicigenerans; W255A) (protein, E. coli T7; trimeric by SEC (117 kDa)) MNQKKECMDVHVNGLKFHVQTFGSGVPIIMIMGLGAPGDKWKHNYELLSKWFWCIVPDNRGAGLSDKPEAESYTTEQMADDIIGIMDALDIKKAHVMGVSMGGAIAQQVALKVPDRVLSLILTSTFASVSPAFKKALNLICELKEDTDPAVLKQLNLWMTYGQYTQIHHPEKIEKSIEEDAAYPYPMPVYAYKAQCGACLSHNTAGRLHELKMPVLIAAGAKDLFMNIEKTMELVHGIPQAEFYLAPEGGHVHQAEYPEPYDSVVVGFLMKHTN
2.87
